EXPERIMENTAL_SYSTEM: EGFR (Homo sapiens)
Construct: purchased Carna Biosciences, Inc; host or cells: insect cell expression system
Sequence (P00533 25-1210): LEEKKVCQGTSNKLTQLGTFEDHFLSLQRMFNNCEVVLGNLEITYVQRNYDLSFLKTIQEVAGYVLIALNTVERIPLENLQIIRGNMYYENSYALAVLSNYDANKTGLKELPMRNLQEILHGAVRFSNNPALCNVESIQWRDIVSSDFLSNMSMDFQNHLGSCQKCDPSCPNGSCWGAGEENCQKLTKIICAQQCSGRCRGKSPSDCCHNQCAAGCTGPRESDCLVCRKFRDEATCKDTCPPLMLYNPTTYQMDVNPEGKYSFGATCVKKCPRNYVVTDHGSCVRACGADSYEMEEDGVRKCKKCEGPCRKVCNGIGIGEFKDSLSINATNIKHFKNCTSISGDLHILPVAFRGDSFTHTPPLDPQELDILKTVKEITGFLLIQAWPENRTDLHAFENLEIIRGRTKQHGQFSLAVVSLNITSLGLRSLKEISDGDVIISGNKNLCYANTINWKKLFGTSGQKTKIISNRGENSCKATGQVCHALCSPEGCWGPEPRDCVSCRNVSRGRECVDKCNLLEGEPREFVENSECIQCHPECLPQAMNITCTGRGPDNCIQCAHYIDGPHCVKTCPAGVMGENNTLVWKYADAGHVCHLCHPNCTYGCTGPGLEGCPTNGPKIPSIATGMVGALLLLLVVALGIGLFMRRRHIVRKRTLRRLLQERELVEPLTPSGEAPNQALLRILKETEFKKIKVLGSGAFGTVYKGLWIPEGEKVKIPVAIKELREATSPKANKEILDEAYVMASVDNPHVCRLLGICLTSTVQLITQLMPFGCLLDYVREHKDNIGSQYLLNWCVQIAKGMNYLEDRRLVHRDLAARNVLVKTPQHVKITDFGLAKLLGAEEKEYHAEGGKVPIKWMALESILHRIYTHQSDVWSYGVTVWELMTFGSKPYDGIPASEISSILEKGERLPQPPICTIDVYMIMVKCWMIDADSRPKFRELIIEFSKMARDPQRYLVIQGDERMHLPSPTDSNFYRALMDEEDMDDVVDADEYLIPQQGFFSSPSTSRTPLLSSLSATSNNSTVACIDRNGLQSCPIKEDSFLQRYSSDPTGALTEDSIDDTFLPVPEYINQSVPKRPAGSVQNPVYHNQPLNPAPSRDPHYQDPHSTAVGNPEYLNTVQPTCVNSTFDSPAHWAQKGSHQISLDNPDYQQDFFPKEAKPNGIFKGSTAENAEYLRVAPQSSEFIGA
PROTOCOL: Enzyme inhibitory activity on EGFR (time resolution fluorescence, biotinylated poly-Glu-Tyr substrate)
Format: biochemical
EXPERIMENTAL_CONDITIONS: enzyme reaction at room temperature for 60 minutes
OBSERVATION_TYPE: IC50 (nM)
Answers are plain numbers, in nM.

Worked cases, answers included:
{"COMPOUND": "CC#C/C(=N\\O[C@H]1CN[C@H](CO)C1)c1ccc2ncnc(Nc3ccc(OCc4ccccn4)c(Cl)c3)c2c1", "REPORTED_MEASUREMENT": 14}
{"COMPOUND": "CC#C/C(=N\\OCCN1CCN(C)CC1)c1ccc2ncnc(Nc3ccc(OCc4ccccn4)c(Cl)c3)c2c1", "REPORTED_MEASUREMENT": 7.3}
{"COMPOUND": "CC#C/C(=N\\OCCNCCNS(C)(=O)=O)c1ccc2ncnc(Nc3ccc4c(cnn4Cc4cccc(F)c4)c3)c2c1", "REPORTED_MEASUREMENT": 6.8}
{"COMPOUND": "CC#C/C(=N\\OCCNC[C@@H]1CCCO1)c1ccc2ncnc(Nc3ccc4c(cnn4Cc4cccc(F)c4)c3)c2c1", "REPORTED_MEASUREMENT": 17}
{"COMPOUND": "CCCC#CC(=NOCCNC)c1ccc2ncnc(Nc3ccc(OCc4cccc(F)c4)c(Cl)c3)c2c1", "REPORTED_MEASUREMENT": 37}

Items follow; give IC50 for each.
1. CC#C/C(=N\OC[C@@H]1C[C@@H](O)CN1)c1ccc2ncnc(Nc3ccc(OCc4ccccn4)c(Cl)c3)c2c1
2. CC#C/C(=N\OC[C@@H]1C[C@H](O)CN1)c1ccc2ncnc(Nc3ccc(OCc4ccccn4)c(Cl)c3)c2c1
3. COC[C@@H]1CCCN1/N=C/c1ccc2ncnc(Nc3ccc(OCc4cccc(F)c4)c(Cl)c3)c2c1
4. CC#C/C(=N\OCC1COCCN1)c1ccc2ncnc(Nc3ccc(COc4cccc(F)c4)c(Cl)c3)c2c1 (centres unmarked) [VIII-221]
5. CC#C/C(=N\OCCNCCN(C)S(C)(=O)=O)c1ccc2ncnc(Nc3ccc4c(cnn4Cc4cccc(F)c4)c3)c2c1
6. CC#C/C(=N\OCCN1CC[C@@H](NC(C)=O)C1)c1ccc2ncnc(Nc3ccc(OCc4ccccn4)c(Cl)c3)c2c1

A:
1: 7; 2: 2.4; 3: 344; 4: 143; 5: 19; 6: 13

Batch request: IC50 for each of the following compounds.
1. CC#C/C(=N\OC[C@@H]1COCCN1)c1ccc2ncnc(Nc3ccc(OCc4ccccn4)c(Cl)c3)c2c1
2. CC#C/C(=N\OC[C@@H]1CCCN1C)c1ccc2ncnc(Nc3ccc(OCc4ccccn4)c(Cl)c3)c2c1
3. CC#C/C(=N\OCCN1CCOCC1)c1ccc2ncnc(Nc3ccc4c(cnn4Cc4cccc(F)c4)c3)c2c1
4. COCC#C/C(=N\OC[C@@H]1COCCN1)c1ccc2ncnc(Nc3ccc(S(=O)(=O)c4ccccc4)cc3)c2c1
5. CC#C/C(=N\OC[C@@H]1C[C@H](O)CN1)c1ccc2ncnc(Nc3ccc4c(cnn4Cc4cccc(F)c4)c3)c2c1
6. CC#C/C(=N\OCCN1CCS(=O)(=O)CC1)c1ccc2ncnc(Nc3ccc(OCc4ccccn4)c(Cl)c3)c2c1
7. CC#C/C(=N\OCCNC[C@@H]1CCCO1)c1ccc2ncnc(Nc3ccc(OCc4ccccn4)c(Cl)c3)c2c1
8. CC#C/C(=N\OC[C@H]1CNC[C@@H](C)O1)c1ccc2ncnc(Nc3ccc(OCc4ccccn4)c(Cl)c3)c2c1

A:
1: 13; 2: 9.5; 3: 45; 4: 38; 5: 8.6; 6: 51; 7: 13; 8: 7.3

Q: Which IC50 is reported with EGFR (Homo sapiens) for this entry: CC#C/C(=N\OCCNC)c1ccc2ncnc(Nc3ccc(OCc4cccnc4)c(Cl)c3)c2c1 ?
A: 22

Values were extracted from patent US8202879B2.
